System: Staphylococcus sp.
Assay: in vitro antibacterial evaluation, MIC by broth dilution
Assay type: cell-based
Details: strain GC 4544; broth dilution, 18 hours at 35° C.
This listing pairs compounds with measured MIC Staphylococcus aureus (GC 4544).
Your answer should be a plain number; it is taken to be in µg/mL.

Below, 2 compounds whose answers are already recorded.
CC(C1CCCCC1)C1NC(=O)CNC(=O)C(CO)NC(=O)C(C(O)C2CNC(=N)N2C2OC(CO)C(O)C(O)C2O)NC(=O)C(C(O)C2CNC(=N)N2)NC(=O)C(Cc2ccc(OC3OC(CO)C(OC4OC5COC(c6ccccc6)OC5C(O)C4O)C(O)C3O)cc2)NC1=O (stereo not shown) [Example 201] :: 0.25
CC(c1ccccc1)C1NC(=O)CNC(=O)C(CO)NC(=O)C(C(O)C2CNC(=N)N2C2OC(CO)C(O)C(O)C2O)NC(=O)C(C(O)C2CNC(=N)N2)NC(=O)C(Cc2ccc3oc(-c4ccc(C(C)(C)C)cc4)nc3c2)NC1=O (stereo not shown) [Example 32] :: 2

// next item, MIC Staphylococcus aureus (GC 4544) requested
## Task Please respond with reported MIC Staphylococcus aureus (GC 4544) (system Staphylococcus sp.) for Cc1ccc(Oc2cccc(-c3nc4cc(CC5NC(=O)C(C(C)c6ccccc6)NC(=O)CNC(=O)C(CO)NC(=O)C(C(O)C6CNC(=N)N6C6OC(CO)C(O)C(O)C6O)NC(=O)C(C(O)C6CNC(=N)N6)NC5=O)ccc4o3)c2)cc1 (stereo not shown) [Example 28] .
## Result 8
